These measurements were taken from patent US20070128217A1.

Recorded Binding of serum 2 to linear peptide (PEPSCAN-ELISA) by entry
Test system: antibodies in sera from SARS patients (sera 1a, 1b, 2, 6, 37, 62, London, SARS-yellow, SARS-green)
Type: binding, human
Give a plain numeric answer without units written out.

# sequence chain, measured value
measured = [
    ("PKGFYAEGSRGGSQA", 0.2),
    ("SRNSTPGSSRGNSPA", 0.4),
    ("NVTQAFGRRGPEQTQ", 0.2),
    ("SSRSRGNSRNSTPGS", 0.1),
    ("ATKQYNVTQAFGRRG", 0.2),
    ("QASSRSSSRSRGNSR", 0.3),
    ("SSSRSRGNSRNSTPG", 0.2),
    ("AEASKKPRQKRTATK", 0.2),
    ("ETALALLLLDRLNQL", 0.1),
    ("LLLDRLNQLESKVSG", 0.4),
]

Enquiry: What measured Binding of serum 2 to linear peptide (PEPSCAN-ELISA) goes with `FYAEGSRGGSQASSR` ?
Return: 0.2

Enquiry: # iterate: `ESKVSGKGQQQQGQT`
Return: 0.2
